Exercise: for every item that follows, state its recorded GI50.
- Tested on: LOX IMVI
- Method: NCI tumour cell line growth inhibition, 48 h
The source made the active and inactive calls. Cut-off read from the data, not from the text of the source: active = GI50 up to about 1.1 µM and inactive = higher.

Worked cases, GI50 given:
Molecule	Assayed target	Recorded endpoint	Assay value
CCNC(=O)c1cc(Cl)ccc1NC(=O)C12CC3CC(CC(C3)C1)C2	LOX IMVI	GI50	42 µM (inactive)
O=C(O)c1cccc2c1/C(=N/Nc1ccccc1)CC2	LOX IMVI	GI50	> 100 µM (inactive)
Cc1cccc2c(=O)c3c(O)cc(O)cc3n(C)c12	LOX IMVI	GI50	> 100 µM (inactive)
COC(=O)C(=O)C(C(=O)C(=O)Nc1ccc(OC)cc1[N+](=O)[O-])c1nc2ccc([N+](=O)[O-])cc2nc1O (stereo unspecified)	LOX IMVI	GI50	> 100 µM (inactive)

Go through the list and state GI50 for each entry.
1. N=C(N)NCCCC(NCc1c2ccccc2nc2ccccc12)C(=O)O (stereo unspecified)
2. O=C(O)CCc1nc(-c2ccccc2)c(-c2ccccc2)o1 [OXAPROZIN]
3. C[N+](C)(C)CCN[N+]1(C)CCCc2ccccc21 (stereo unspecified)
4. O=P1(Cc2ccccc2)c2ccccc2-c2ccccc21
5. O=C(Nc1nc(C23CC4CC(CC(C4)C2)C3)cs1)c1c(O)c2ccccc2[nH]c1=O
6. CC(=O)Oc1cccc2c1C(=O)CCCC2
7. CN[C@@H](C)[C@@H](N)c1ccccc1

1. 26.2 µM (inactive)
2. > 100 µM (inactive)
3. > 100 µM (inactive)
4. 4.74 µM (inactive)
5. > 100 µM (inactive)
6. > 100 µM (inactive)
7. > 100 µM (inactive)

Hey, just so you know, these numbers are from ChEMBL document CHEMBL1201862.
